Ref: the supplement of paper PMC5908809

- Test system: NK-YS (IL-2 2.5 ng/mL);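 also: normalised to DMSO-only wells as negative and benzethonium chloride as positive control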
- RUN DESCRIPTION: percent inhibition of viability; higher = more inhibition
- PROTOCOL CONDITIONS: 72 h; 10 nM
REPORTED METRIC: percent inhibition of viability
Field note: include the unit after the figure.

COMPOUND	percent inhibition of viability
CC[C@@H]1C(=O)N(C)c2cnc(Nc3ccc(C(=O)NC4CCN(C)CC4)cc3OC)nc2N1C1CCCC1 [BI 2536] (max concentration tested 1000 nM)	22.7%
CNC(=O)c1ccc(-c2cnc3ncc(Cc4ccc5ncccc5c4)n3n2)cc1F [NVP-INC280] (max concentration tested 1000 nM)	2.09%
O=C(Nc1cccc(C(F)(F)F)c1)Nc1cc(S(=O)(=O)NC2CC2)ccc1-c1ccsc1 [AGI-6780] (max concentration tested 10000 nM)	0.5%
O=C(Cc1ccc(-c2ccc(OCCN3CCOCC3)cc2)cn1)NCc1ccccc1 [KX2-391] (max concentration tested 10000 nM)	18.5%
Nc1nccc(-c2c(-c3ccc(F)cc3)ncn2C2CCCCC2)n1 (max concentration tested 10000 nM)	-2.41%

Query string: For the compound shown here, COCC(=O)NC/C=C/c1ccc2ncnc(Nc3ccc(Oc4ccc(C)nc4)c(C)c3)c2c1 (max concentration tested 10000 nM) , give the reported percent inhibition of viability.
Result string: 0.49%

Query string: Please answer likewise for COc1cc2nccc(Oc3ccc(NC(=O)Nc4cc(C)on4)c(Cl)c3)c2cc1OC [Tivozanib] (max concentration tested 10000 nM)
Result string: 1.72%

Query string: Please answer likewise for C=CCNC1=C2C[C@@H](C)C[C@H](OC)[C@H](O)[C@@H](C)/C=C(\C)[C@H](OC(N)=O)[C@@H](OC)/C=C\C=C(/C)C(=O)NC(=CC1=O)C2=O [Tanespimycin] (max concentration tested 10000 nM)
Result string: -0.46%

Query string: Please answer likewise for Cc1ccccc1C(C(=O)NC1CCCCC1)N(C(=O)Cn1ccnc1C)c1cccc(F)c1 (configuration not stated) [AGI-5198] (max concentration tested 10000 nM)
Result string: -1.9%

Query string: Please answer likewise for CCc1cc2c(cc1N1CCC(N3CCOCC3)CC1)C(C)(C)c1[nH]c3cc(C#N)ccc3c1C2=O [Alectinib] (max concentration tested 1000 nM)
Result string: -7.75%

Query string: Please answer likewise for CCn1cc(-c2ccnc3[nH]c(-c4cccc(CN(C)C)c4)cc23)c(-c2ccc(NC(=O)N(C)C)cc2)n1 (max concentration tested 1000 nM)
Result string: 26.2%

Query string: Please answer likewise for CS(=O)(=O)c1ccc(-c2cnc(N)c(C(=O)Nc3ccccc3)n2)cc1 [VE-821] (max concentration tested 10000 nM)
Result string: -3.96%

Query string: Please answer likewise for CNC(=O)c1ccc(N2C(=S)N(c3ccc(C#N)c(C(F)(F)F)c3)C(=O)C23CCC3)cc1F [RD162] (max concentration tested 10000 nM)
Result string: -6.94%

Query string: Please answer likewise for C=C1C[C@@H]2[C@H](CC[C@]3(C)C(=O)CC[C@@H]23)[C@@]2(C)C=CC(=O)C=C12 [Exemestane] (max concentration tested 10000 nM)
Result string: 3.99%

Query string: Please answer likewise for Cc1ccc(-c2cc(C(F)(F)F)nn2-c2ccc(S(N)(=O)=O)cc2)cc1 [Celecoxib] (max concentration tested 10000 nM)
Result string: 1.41%

Query string: Please answer likewise for CCc1cncnc1N1CCN(Cc2nc3ccc(C(F)(F)F)cc3[nH]2)CC1 (max concentration tested 10000 nM)
Result string: -5.55%

Query string: Please answer likewise for CN(C)C1CCN(C(=O)c2ccc(NC(=O)Nc3ccc(-c4nc(N5CCOCC5)nc(N5CCOCC5)n4)cc3)cc2)CC1 [Gedatolisib] (max concentration tested 1000 nM)
Result string: 18.4%

Query string: Please answer likewise for N#CC[C@H](C1CCCC1)n1cc(-c2ncnc3[nH]ccc23)cn1 [Ruxolitinib] (max concentration tested 10000 nM)
Result string: 10.2%

Query string: Please answer likewise for O=c1[nH]cc(F)c(=O)[nH]1 [Fluorouracil] (max concentration tested 10000 nM)
Result string: 0.12%

Query string: Please answer likewise for CC(=O)O[C@@]12CO[C@@H]1C[C@H](O)[C@@]1(C)C(=O)[C@H](O)C3=C(C)[C@@H](OC(=O)[C@H](O)[C@@H](NC(=O)OC(C)(C)C)c4ccccc4)C[C@@](O)([C@@H](OC(=O)c4ccccc4)[C@H]21)C3(C)C [Docetaxel] (max concentration tested 1000 nM)
Result string: 74.8%

Query string: Please answer likewise for CNC(=O)c1cc(Oc2ccc(NC(=O)Nc3ccc(Cl)c(C(F)(F)F)c3)c(F)c2)ccn1 [Regorafenib] (max concentration tested 10000 nM)
Result string: -1.21%

Query string: Please answer likewise for c1ccc2c(CCNc3ccc(Nc4ccncc4)cc3)c[nH]c2c1 [Serdemetan] (max concentration tested 10000 nM)
Result string: -6.06%
